src = patent US20130136691A1

system: GRP receptor binding in T47D human breast cancer cells; assay: Effect of drug treatment on GRP receptor binding (177Lu-AMBA) and proliferation in T-47D cells; type: cell-based; conditions: T-47D; relative to untreated control; drug 0.1-1.0 μM (gefitinib 0.1-10 μM)
Experimental Endpoint: increase in 177Lu-AMBA binding (GRP receptor specific signal per cell)

According to the records, this compound C#Cc1cccc(Nc2ncnc3cc(OCCOC)c(OCCOC)cc23)c1 [erlotinib] displays increase in 177Lu-AMBA binding (GRP receptor specific signal per cell) of 5-20%
